tested on: P388 leukemia ip, CD2F1 mice, survival T/C; assay: NCI In Vivo Anticancer Drug Screen. Data for tumor model P388 Leukemia (intraperitoneal) in CD2F1 (CDF1) mice; conditions: endpoint: median survival time; dose: 60.0 mg/kg/injection; schedule: Q01DX005 (ip); vehicle: saline with Tween-80; higher = longer survival
Toxic doses and inconclusive results are not listed.
measure: T/C

Example compounds with recorded T/C:
[
  {
    "compound": "O=c1oc2ccccc2cc1S(=O)(=O)c1ccc(Cl)cc1",
    "T/C": "91 % of control"
  },
  {
    "compound": "O=[N+]([O-])c1cccnc1-n1nnc2c([N+](=O)[O-])cccc21",
    "T/C": "99 % of control"
  }
]

Go through the list and state T/C for each entry.
1. COC(=O)C1=C(O)c2cc(C)c(C)c(C#N)c2NC(=O)C1
2. Cc1ncc(CO)c(C2NC(C(=O)O)CS2)c1O (configuration not stated)
3. CNC(=O)Nc1ccc(C2(C)SCCS2)cc1
4. CC(C)CC(=O)CC(=O)CCC(=O)Nc1ccc(Cl)cc1Cl
5. Nc1ncnc(N)c1NC(=O)c1cc(Cl)c(OCc2ccccc2)c(Cl)c1
6. CCC(O)(c1ccccc1)c1cnc(C)n1Cc1ccccc1 (configuration not stated)
7. O=Cc1ccc(COCCO)o1

Result:
["95 % of control", "98 % of control", "97 % of control", "100 % of control", "101 % of control", "91 % of control", "105 % of control"]

Go through the list and state T/C for each entry.
1. OC1c2ccccc2-c2cccc(N=Cc3ccc4c(c3)OCO4)c21 (configuration not stated)
2. CCOC(=O)CNC(=O)NCc1ccccc1
3. Nc1nnc2nc(CC(=O)c3ccccc3[N+](=O)[O-])c(CC(=O)c3ccccc3[N+](=O)[O-])nn12
4. COc1ccc(C2COc3c(ccc(O)c3O)C2)cc1OC (configuration not stated)
5. CCOC(=O)C(Br)CN1C(=O)c2ccccc2C1=O (configuration not stated)
6. O=C1NC2Cc3ccccc3C(C2)O1 (configuration not stated)
7. COc1ccc(-c2[nH]c(=O)c(C#N)c(C(=O)NN)c2-c2ccc(OC)cc2)cc1
8. O=C(Nc1cccc(C(F)(F)F)c1)Oc1ccc(Cl)c2cccnc12

Result:
108 % of control
108 % of control
100 % of control
94 % of control
97 % of control
101 % of control
112 % of control
99 % of control

Go through the list and state T/C for each entry.
1. COC(=O)c1cc(-c2ccc([N+](=O)[O-])cc2)c2c(=O)n(-c3ccccc3)[nH]c2n1
2. Nc1ccc(S(=O)(=O)NCCSSCCNS(=O)(=O)c2ccc(N)cc2)cc1
3. CCCCOC(=O)CNCC(=O)OCCCC

Result:
["94 % of control", "97 % of control", "100 % of control"]

Go through the list and state T/C for each entry.
1. Cc1ccc([C@H]2N[C@@H]2c2ccccn2)cc1
2. [N-]=[N+]=Nc1ccnc2cc(Cl)ccc12

Result:
1: 98 % of control; 2: 108 % of control
